B1: TPR t1 (parent)
chain: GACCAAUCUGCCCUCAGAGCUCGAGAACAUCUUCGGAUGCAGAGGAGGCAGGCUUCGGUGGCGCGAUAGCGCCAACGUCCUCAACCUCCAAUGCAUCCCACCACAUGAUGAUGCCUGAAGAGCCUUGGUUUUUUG

Variants of: B1
assay.method.text: polymerase ribozyme fitness, log enrichment relative to wild type (log ratio); higher = more active; in vitro selection for triplet polymerase activity
Kind request: treat -3 as inclusive, so polymerase ribozyme fitness (log ratio) at -3 or higher is met, anything lower is not met.

Query: Reported polymerase ribozyme fitness (log ratio) reaches at least -3 for C22U A24U G57U C82U C115A ?
Reply: not met

Query: Reported polymerase ribozyme fitness (log ratio) reaches at least -3 for C8U G36U C56U C82A C89G ?
Reply: met

Query: Reported polymerase ribozyme fitness (log ratio) reaches at least -3 for U59C G120A ?
Reply: met

Query: Reported polymerase ribozyme fitness (log ratio) reaches at least -3 for C11A C12G C70A A111C ?
Reply: not met

Query: Reported polymerase ribozyme fitness (log ratio) reaches at least -3 for A29G C104A ?
Reply: met

Query: Reported polymerase ribozyme fitness (log ratio) reaches at least -3 for C20U G57A ?
Reply: met

Query: Reported polymerase ribozyme fitness (log ratio) reaches at least -3 for C79A U87C G113U ?
Reply: not met

Query: Reported polymerase ribozyme fitness (log ratio) reaches at least -3 for U9A A37C G63A ?
Reply: met

Query: Reported polymerase ribozyme fitness (log ratio) reaches at least -3 for A2U C8G ?
Reply: met

Query: Reported polymerase ribozyme fitness (log ratio) reaches at least -3 for G69U C123U ?
Reply: met

Query: Reported polymerase ribozyme fitness (log ratio) reaches at least -3 for C62U G117A U131A ?
Reply: met

Query: Reported polymerase ribozyme fitness (log ratio) reaches at least -3 for C15A U106C ?
Reply: met

Query: Reported polymerase ribozyme fitness (log ratio) reaches at least -3 for C64U C88A U96G U109C A121G ?
Reply: not met

Query: Reported polymerase ribozyme fitness (log ratio) reaches at least -3 for C31A U54C U96A A111G ?
Reply: not met

Query: Reported polymerase ribozyme fitness (log ratio) reaches at least -3 for C12U U106A ?
Reply: met

Query: Reported polymerase ribozyme fitness (log ratio) reaches at least -3 for C49U C62A U96C ?
Reply: met

Query: Reported polymerase ribozyme fitness (log ratio) reaches at least -3 for C20U U132C ?
Reply: met

Query: Reported polymerase ribozyme fitness (log ratio) reaches at least -3 for C4A C104A ?
Reply: met

Query: Reported polymerase ribozyme fitness (log ratio) reaches at least -3 for G113U A119C ?
Reply: not met

Query: Reported polymerase ribozyme fitness (log ratio) reaches at least -3 for C62G A84U A108G ?
Reply: not met

Query: Reported polymerase ribozyme fitness (log ratio) reaches at least -3 for C34A C70A ?
Reply: not met

Query: Reported polymerase ribozyme fitness (log ratio) reaches at least -3 for C40U C88U ?
Reply: met

Query: Reported polymerase ribozyme fitness (log ratio) reaches at least -3 for G71U U87G ?
Reply: met

Query: Reported polymerase ribozyme fitness (log ratio) reaches at least -3 for C73U C94U G113U ?
Reply: not met

Query: Reported polymerase ribozyme fitness (log ratio) reaches at least -3 for A16C C40U G52A U59G U112A ?
Reply: met

Query: Reported polymerase ribozyme fitness (log ratio) reaches at least -3 for C11U C34G A46U G120A A121G ?
Reply: not met

Query: Reported polymerase ribozyme fitness (log ratio) reaches at least -3 for G51C G120C ?
Reply: met

Query: Reported polymerase ribozyme fitness (log ratio) reaches at least -3 for A2G C22U G61A A75U ?
Reply: not met

Query: Reported polymerase ribozyme fitness (log ratio) reaches at least -3 for C40U C72U C98G G127U U131C ?
Reply: not met

Query: Reported polymerase ribozyme fitness (log ratio) reaches at least -3 for G60C A84C ?
Reply: met

Query: Reported polymerase ribozyme fitness (log ratio) reaches at least -3 for C12G C124G ?
Reply: met

Query: Reported polymerase ribozyme fitness (log ratio) reaches at least -3 for U54G G57U G120A ?
Reply: met

Query: Reported polymerase ribozyme fitness (log ratio) reaches at least -3 for C56U U81G C82A ?
Reply: met

Query: Reported polymerase ribozyme fitness (log ratio) reaches at least -3 for U38C C56U ?
Reply: met

Query: Reported polymerase ribozyme fitness (log ratio) reaches at least -3 for C15U A91G A105G U112A ?
Reply: not met

Query: Reported polymerase ribozyme fitness (log ratio) reaches at least -3 for G77C C89G G122U C123U ?
Reply: met

Query: Reported polymerase ribozyme fitness (log ratio) reaches at least -3 for A91C C114U ?
Reply: not met

Query: Reported polymerase ribozyme fitness (log ratio) reaches at least -3 for U38A U96A ?
Reply: met

Query: Reported polymerase ribozyme fitness (log ratio) reaches at least -3 for A6C C13A C88A ?
Reply: not met

Query: Reported polymerase ribozyme fitness (log ratio) reaches at least -3 for U14C U54G G93C C104U U116G ?
Reply: not met

Query: Reported polymerase ribozyme fitness (log ratio) reaches at least -3 for C79A U92C C98G C104A C114G ?
Reply: not met

Query: Reported polymerase ribozyme fitness (log ratio) reaches at least -3 for G61A U87G ?
Reply: met

Query: Reported polymerase ribozyme fitness (log ratio) reaches at least -3 for G10U A27G U59A C98U ?
Reply: not met

Query: Reported polymerase ribozyme fitness (log ratio) reaches at least -3 for A6C A18U ?
Reply: met

Query: Reported polymerase ribozyme fitness (log ratio) reaches at least -3 for U7G U92A ?
Reply: met

Query: Reported polymerase ribozyme fitness (log ratio) reaches at least -3 for G36A G58C U116G ?
Reply: not met

Query: Reported polymerase ribozyme fitness (log ratio) reaches at least -3 for G42U U78C C123G ?
Reply: met

Query: Reported polymerase ribozyme fitness (log ratio) reaches at least -3 for U96A A111G ?
Reply: met

Query: Reported polymerase ribozyme fitness (log ratio) reaches at least -3 for A50U C56U A83C ?
Reply: met

Query: Reported polymerase ribozyme fitness (log ratio) reaches at least -3 for G39C G77C C115U G128A ?
Reply: not met

Query: Reported polymerase ribozyme fitness (log ratio) reaches at least -3 for C53A C56U G58A U133G ?
Reply: met

Query: Reported polymerase ribozyme fitness (log ratio) reaches at least -3 for A43C G44U ?
Reply: met

Query: Reported polymerase ribozyme fitness (log ratio) reaches at least -3 for A6C G61C U92C ?
Reply: not met

Query: Reported polymerase ribozyme fitness (log ratio) reaches at least -3 for G10A C13U C64A C70A G113A U125C ?
Reply: not met

Query: Reported polymerase ribozyme fitness (log ratio) reaches at least -3 for G36U C53U G63A C123G ?
Reply: met

Query: Reported polymerase ribozyme fitness (log ratio) reaches at least -3 for G39C A43G C124U ?
Reply: met

Query: Reported polymerase ribozyme fitness (log ratio) reaches at least -3 for A41U A66C C70U C97U ?
Reply: not met

Query: Reported polymerase ribozyme fitness (log ratio) reaches at least -3 for C49G U96A U112A ?
Reply: met

Query: Reported polymerase ribozyme fitness (log ratio) reaches at least -3 for G60U C89U U92A A118U ?
Reply: met

Query: Reported polymerase ribozyme fitness (log ratio) reaches at least -3 for G10U G48A G93A C114G ?
Reply: not met

Query: Reported polymerase ribozyme fitness (log ratio) reaches at least -3 for C15A C40U C115U U131A ?
Reply: met

Query: Reported polymerase ribozyme fitness (log ratio) reaches at least -3 for G17U U109A ?
Reply: not met

Query: Reported polymerase ribozyme fitness (log ratio) reaches at least -3 for G71C C79A C85G G120A ?
Reply: not met

Query: Reported polymerase ribozyme fitness (log ratio) reaches at least -3 for G47U C101U C114U A118U ?
Reply: not met

Query: Reported polymerase ribozyme fitness (log ratio) reaches at least -3 for C56U G107U ?
Reply: not met

Query: Reported polymerase ribozyme fitness (log ratio) reaches at least -3 for G63C U116A ?
Reply: not met

Query: Reported polymerase ribozyme fitness (log ratio) reaches at least -3 for C20G G23U U32A C98G C123G U131G ?
Reply: not met

Query: Reported polymerase ribozyme fitness (log ratio) reaches at least -3 for C49G G77U ?
Reply: met

Query: Reported polymerase ribozyme fitness (log ratio) reaches at least -3 for C53G G69C ?
Reply: met

Query: Reported polymerase ribozyme fitness (log ratio) reaches at least -3 for C3U C11A G47A C72A G110U ?
Reply: met

Query: Reported polymerase ribozyme fitness (log ratio) reaches at least -3 for C8G G48U G93U U112A C124A ?
Reply: met

Query: Reported polymerase ribozyme fitness (log ratio) reaches at least -3 for C34G C124A ?
Reply: not met

Query: Reported polymerase ribozyme fitness (log ratio) reaches at least -3 for A6G C72U ?
Reply: met

Query: Reported polymerase ribozyme fitness (log ratio) reaches at least -3 for U21A A43C C73G U78C ?
Reply: not met

Query: Reported polymerase ribozyme fitness (log ratio) reaches at least -3 for A2C G69A C114A ?
Reply: not met

Query: Reported polymerase ribozyme fitness (log ratio) reaches at least -3 for U9C G120C ?
Reply: met

Query: Reported polymerase ribozyme fitness (log ratio) reaches at least -3 for G71C C98U ?
Reply: met

Query: Reported polymerase ribozyme fitness (log ratio) reaches at least -3 for G69A C89G C97A A105C G110U ?
Reply: not met

Query: Reported polymerase ribozyme fitness (log ratio) reaches at least -3 for C3A C4G G10A G61A C123G ?
Reply: met

Query: Reported polymerase ribozyme fitness (log ratio) reaches at least -3 for G77A C89A ?
Reply: met

Query: Reported polymerase ribozyme fitness (log ratio) reaches at least -3 for G47C G58A U112A G117U ?
Reply: not met

Query: Reported polymerase ribozyme fitness (log ratio) reaches at least -3 for C12A A24C C97U ?
Reply: not met

Query: Reported polymerase ribozyme fitness (log ratio) reaches at least -3 for A41G A66G ?
Reply: met

Query: Reported polymerase ribozyme fitness (log ratio) reaches at least -3 for G58U G60C C88U A95U ?
Reply: met

Query: Reported polymerase ribozyme fitness (log ratio) reaches at least -3 for G39U G42A G57U G117A C124G ?
Reply: not met

Query: Reported polymerase ribozyme fitness (log ratio) reaches at least -3 for C22U C94A ?
Reply: not met

Query: Reported polymerase ribozyme fitness (log ratio) reaches at least -3 for A5C U112A C114A ?
Reply: met

Query: Reported polymerase ribozyme fitness (log ratio) reaches at least -3 for G48U C56G C101U C114G ?
Reply: not met
